B1: glmS ribozyme (parent)
chain: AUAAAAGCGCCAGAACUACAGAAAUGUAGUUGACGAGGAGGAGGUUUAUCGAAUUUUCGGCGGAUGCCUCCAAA

# Variants of: B1
# Measurement notes: self-cleavage kobs at 10000 uM GlcN6P; higher = faster cleavage; RNA array
# Conditions used: with glucosamine-6-phosphate
This sample holds only a part of the variants without activity.
Exercise: state measured self-cleavage kobs at 10000 uM GlcN6P for each of the variants provided.

A6C G13U A53U: < 1e-05 s⁻¹

Hi there! I need self-cleavage kobs at 10000 uM GlcN6P for each item below, if you can.
1. G32U A39G U69A
2. G7A G41A A53C

0.000121 s⁻¹
< 1e-05 s⁻¹

Source: the supplement of paper PMC7125110
